The reported numbers originate from the supplement of paper PMC6555819.

System: PPARg:RXRa DBDmut IVT, anti-RXR (DBD mutation: RXRa K156A/R161A, NR concentration 270 nM, RXRa partner concentration 90 nM)
Test details: PBM binding z-score (relative to random genomic background probes); higher = stronger binding; sequences stand for … in GC…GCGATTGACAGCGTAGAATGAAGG

Query sequence | PBM binding z-score
CCTACCGGGCCATCAGGTCATTGATATCAACGTT | 0.52
TAGCCTAGGTCATGGGGCAGTATACCACGCGAAC | 1.45
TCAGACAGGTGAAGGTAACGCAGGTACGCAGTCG | 2.13
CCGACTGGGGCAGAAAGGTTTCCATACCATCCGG | 1.64
TCTGCTAGGTCAACGATTGTCAGCTAATCTGCTA | 4.14
TGACCAAGGTGAGCTGAGGTCGTTGATCCAACTC | 0.169

* * *

Test system: PPARg:RXRa 90nM:30nM, anti-RXR (NR concentration 90 nM, RXRa partner concentration 30 nM)
Test details: PBM binding z-score (relative to random genomic background probes); higher = stronger binding; sequences stand for … in GC…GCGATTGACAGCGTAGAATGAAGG
Parameter threshold = 2. Response is True when PBM binding z-score meets or exceeds it, else False.

Query sequence | Class label
CCGACTGGGGCAGAAAGGATACCATACCATCCGG | False
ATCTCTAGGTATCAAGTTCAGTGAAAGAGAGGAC | False
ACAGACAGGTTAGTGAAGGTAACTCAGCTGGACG | False
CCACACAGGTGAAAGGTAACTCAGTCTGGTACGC | True
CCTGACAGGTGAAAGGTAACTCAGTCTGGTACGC | True
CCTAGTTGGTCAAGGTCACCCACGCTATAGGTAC | True

* * *

Tested on: LXRa:RXRa (NR concentration 270 nM, RXRa partner concentration 90 nM)
Test details: PBM binding z-score (relative to random genomic background probes); higher = stronger binding; sequences stand for … in GC…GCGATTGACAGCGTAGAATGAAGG
Group membership follows PBM binding z-score per the scheme class A: < -0.05; class B: ≥ -0.05 and < 2; class C: ≥ 2

Query sequence | Class label
ATATGTAGGTTAAGGGTAATTCAGGTTGGTTCGC | class C
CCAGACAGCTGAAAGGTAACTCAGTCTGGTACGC | class A
ATCGACAGGTCGAGGTGAGTATAGAGAAAGGGAA | class B
CGCGAAAGGTCGTGCTCAGGTGAGTATACCAAAC | class C
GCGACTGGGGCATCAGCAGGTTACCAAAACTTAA | class A
TCGCGGAGGACACGAAGGTCAGAGCTTTCCAGAG | class B
GATACAGGGTCAGCTAGAGGCCAGAGTGTGGAAA | class C
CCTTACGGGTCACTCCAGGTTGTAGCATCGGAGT | class C
CCGACTGGGGCATAAGGATACCATAAGCCAGCCC | class A
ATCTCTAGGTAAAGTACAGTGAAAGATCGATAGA | class B

* * *

Test system: PPARg DBDmut:RXRa IVT, anti-PPARg (DBD mutation: PPARg1 K132A/R137A, NR concentration 270 nM, RXRa partner concentration 90 nM)
Test details: PBM binding z-score (relative to random genomic background probes); higher = stronger binding; sequences stand for … in GC…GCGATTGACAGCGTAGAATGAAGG
Listed here are sequences together with their documented PBM binding z-score.

Query sequence | PBM binding z-score
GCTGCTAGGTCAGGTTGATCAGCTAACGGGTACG | -1.1
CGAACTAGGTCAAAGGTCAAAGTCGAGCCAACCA | 5.13
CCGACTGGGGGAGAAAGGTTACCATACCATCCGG | 1.16
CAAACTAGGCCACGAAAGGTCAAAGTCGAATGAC | 1.6
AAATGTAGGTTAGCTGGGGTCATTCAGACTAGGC | 4.54
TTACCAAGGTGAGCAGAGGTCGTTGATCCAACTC | -0.426
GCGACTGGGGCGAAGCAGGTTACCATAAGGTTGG | -1.9
CAAACTAAGTCAAGGTCAAAGTCGGTTTGTGCCA | 0.787
CCCGAAAGGTCGGTTGAGGTGAGTATACGGATAA | -0.316
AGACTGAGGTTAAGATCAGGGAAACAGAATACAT | -0.0816
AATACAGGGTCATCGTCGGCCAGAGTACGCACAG | 1.99
TCTTGTAGATTAACAGGAGGTTAAGAAAGATCGA | -0.776
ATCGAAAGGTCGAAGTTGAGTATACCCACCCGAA | 1.1
CCGACTGGGGCAAAGGTTGCCATACTCAGTACGA | -0.511
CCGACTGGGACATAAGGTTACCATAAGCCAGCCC | -1.05
TAGCCTAGGTCACTGGGCCAGTATAGTACGCATC | 1.2
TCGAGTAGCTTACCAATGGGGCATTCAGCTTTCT | -1.01
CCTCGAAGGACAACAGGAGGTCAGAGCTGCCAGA | -0.412
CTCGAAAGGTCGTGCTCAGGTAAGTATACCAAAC | 0.44
CCTAGCAGGCCAATCTGGGTCATTCAAGGCTTGA | -1.11
CCAGACAGGTGACAGGTAACTCAGTCTGGTACGC | -0.216
TGAATGAGGTGATAAGATCAGGGAACGTTGCAAA | 0.612
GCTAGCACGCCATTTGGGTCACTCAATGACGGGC | -1.77
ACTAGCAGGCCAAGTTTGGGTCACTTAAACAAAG | -0.398
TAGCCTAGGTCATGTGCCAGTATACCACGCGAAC | 0.0994
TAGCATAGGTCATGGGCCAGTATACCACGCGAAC | 0.682
TCAAGTTGGTCACGGAGGTCACACACGACGGGTA | 1.48
TCATATGGGTAATACAGGTGAAAGTCGGCATCTA | 1.3
